# TARGET OR SYSTEM: Mtb Rv3802 (Mycobacterium tuberculosis)
# Sequence (O53581 whole entry): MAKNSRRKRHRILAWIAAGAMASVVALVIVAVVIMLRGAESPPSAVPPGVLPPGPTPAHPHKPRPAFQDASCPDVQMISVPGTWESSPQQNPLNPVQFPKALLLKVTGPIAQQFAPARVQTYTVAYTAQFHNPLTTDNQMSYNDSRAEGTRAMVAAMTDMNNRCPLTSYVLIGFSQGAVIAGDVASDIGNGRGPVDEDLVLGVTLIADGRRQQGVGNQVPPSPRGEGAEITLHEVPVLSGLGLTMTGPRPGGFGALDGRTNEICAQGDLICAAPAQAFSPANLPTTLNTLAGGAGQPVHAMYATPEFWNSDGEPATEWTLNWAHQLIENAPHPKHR
# Type: biochemical
# MEASUREMENT CONDITIONS: 100 μM inhibitor, no preincubation time
MEASUREMENT NAME: inhibition level of Rv3802

CCCCCCCCCCC[C@H](C[C@H]1OC(=O)[C@@H]1CCCCCC)OC(=O)[C@H](CC(C)C)NC=O (single isomer, unassigned; ent2)
83.9 ± 0.6%
CCCCCCCCCCC[C@H](C[C@@H]1OC(=O)[C@H]1CCCCCC)OC(=O)[C@H](CC(C)C)NC=O [5-epi-THL]
completely inhibit
CCCCCCCCCCC[C@@H](C[C@@H]1OC(=O)[C@H]1CCCCCC)OC(=O)[C@H](CC(C)C)NC=O [THL, Tetrahydrolipstatin]
completely inhibit
CCCCCCCCCCC[C@@H](C[C@@H]1OC(=O)[C@H]1CCCCCC)OC(=O)[C@@H](CC(C)C)NC=O [2′-epi-THL]
completely inhibit

Query block: State the recorded inhibition level of Rv3802 for this entry: CCCCCCCCCCC[C@H](C[C@@H]1OC(=O)[C@H]1CCCCCC)OC(=O)[C@@H](CC(C)C)NC=O [2′,5-epi-THL]
Result block: completely inhibit
